Taken from patent US20160297884A1.

molecular target: T1, Cynomolgus monkey BCMA (cynomolgus monkey); experiment: SPR, IgG immobilised, cyno BCMA analyte
T1 construct: Soluble analyte in SPR; also called cyBCMA; Cyno BCMA
binders and their reported kon

{"binder": "COMBO_Rd4_6nM_C22 (antibody, V domains shown, IgG) VH: EVQLLESGGGLVQPGGSLRLSCAASGFTFSSYAMNWVRQAPGKGLEWVSACLDSGGSTYYADSVKGRFTISRDNSKNTLYLQMNSLRAEDTAVYYCARYWPMDSWGQGTLVTVSS VL: EIVLTQSPGTLSLSPGERATLSCRASQSVSSSYLAWYQQKPGQAPRLLMYDASIRATGIPDRFSGSGSGTDFTLTISRLEPEDFAVYYCQQYQGWPLTFGQGTKVEIK", "kon": "1.7e+06 M⁻¹ s⁻¹"}
{"binder": "A02_Rd4_6nM_C19 (antibody, V domains shown, IgG) VH: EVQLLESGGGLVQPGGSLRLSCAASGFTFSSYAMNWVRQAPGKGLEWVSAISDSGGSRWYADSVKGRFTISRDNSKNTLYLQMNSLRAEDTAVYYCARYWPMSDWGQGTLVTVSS VL: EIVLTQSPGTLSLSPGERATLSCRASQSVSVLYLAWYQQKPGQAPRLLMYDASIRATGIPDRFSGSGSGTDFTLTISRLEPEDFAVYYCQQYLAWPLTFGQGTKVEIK", "kon": "2.54e+06 M⁻¹ s⁻¹"}
{"binder": "C01_Rd4_6nM_C09 (antibody, V domains shown, IgG) VH: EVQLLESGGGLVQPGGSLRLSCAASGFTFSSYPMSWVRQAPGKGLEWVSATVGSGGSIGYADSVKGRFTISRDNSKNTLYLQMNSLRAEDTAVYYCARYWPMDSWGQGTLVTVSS VL: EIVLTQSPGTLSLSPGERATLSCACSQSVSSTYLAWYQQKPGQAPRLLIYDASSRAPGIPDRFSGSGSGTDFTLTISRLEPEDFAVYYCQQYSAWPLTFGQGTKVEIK", "kon": "3.73e+06 M⁻¹ s⁻¹"}
{"binder": "COMBO_Rd4_0.6nM_C02 (antibody, V domains shown, IgG) VH: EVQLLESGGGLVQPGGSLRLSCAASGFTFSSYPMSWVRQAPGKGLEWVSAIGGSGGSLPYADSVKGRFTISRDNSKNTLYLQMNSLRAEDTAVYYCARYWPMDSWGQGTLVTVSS VL: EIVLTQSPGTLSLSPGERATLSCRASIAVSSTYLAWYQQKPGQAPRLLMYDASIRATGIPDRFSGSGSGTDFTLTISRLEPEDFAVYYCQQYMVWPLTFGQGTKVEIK", "kon": "3.01e+06 M⁻¹ s⁻¹"}
{"binder": "C01_Rd4_0.6nM_C03 (antibody, V domains shown, IgG) VH: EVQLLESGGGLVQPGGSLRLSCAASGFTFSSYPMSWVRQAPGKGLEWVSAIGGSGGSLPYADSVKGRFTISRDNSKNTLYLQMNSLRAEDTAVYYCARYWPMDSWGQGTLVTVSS VL: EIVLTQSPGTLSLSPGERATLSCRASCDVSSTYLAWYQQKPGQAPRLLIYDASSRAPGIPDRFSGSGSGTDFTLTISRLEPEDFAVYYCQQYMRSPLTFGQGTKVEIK", "kon": "4.72e+06 M⁻¹ s⁻¹"}
{"binder": "COMBO_Rd4_6nM_C21 (antibody, V domains shown, IgG) VH: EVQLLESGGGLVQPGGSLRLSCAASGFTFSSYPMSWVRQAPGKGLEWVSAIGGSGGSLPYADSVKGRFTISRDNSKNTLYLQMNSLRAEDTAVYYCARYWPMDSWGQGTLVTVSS VL: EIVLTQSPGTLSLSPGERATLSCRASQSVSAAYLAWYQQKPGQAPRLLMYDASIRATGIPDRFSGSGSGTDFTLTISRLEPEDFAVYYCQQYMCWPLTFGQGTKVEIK", "kon": "3.17e+06 M⁻¹ s⁻¹"}
{"binder": "A02_Rd4_6nM_C07 (antibody, V domains shown, IgG) VH: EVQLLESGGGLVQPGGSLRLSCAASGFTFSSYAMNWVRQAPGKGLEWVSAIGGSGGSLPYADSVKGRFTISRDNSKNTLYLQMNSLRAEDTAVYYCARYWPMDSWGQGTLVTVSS VL: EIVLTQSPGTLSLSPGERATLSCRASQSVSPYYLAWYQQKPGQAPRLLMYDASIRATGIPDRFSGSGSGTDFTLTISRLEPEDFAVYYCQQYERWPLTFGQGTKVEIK", "kon": "691000 M⁻¹ s⁻¹"}
{"binder": "A02_Rd4_6nM_C26 (antibody, V domains shown, IgG) VH: EVQLLESGGGLVQPGGSLRLSCAASGFTFSSYAMNWVRQAPGKGLEWVSAISDSGGSTYYADSVKGRFTISRDNSKNTLYLQMNSLRAEDTAVYYCARYWPMSLWGQGTLVTVSS VL: EIVLTQSPGTLSLSPGERATLSCRASQSVSSLYLAWYQQKPGQAPRLLMYDASIRATGIPDRFSGSGSGTDFTLTISRLEPEDFAVYYCQQYQVWPLTFGQGTKVEIK", "kon": "2.21e+06 M⁻¹ s⁻¹"}
